Taken from patent US20230365563A1.

subject-of-test: KRAS_WT and SOS1 (Homo sapiens)
Sequence (P01116 1-188 isoform P01116-2): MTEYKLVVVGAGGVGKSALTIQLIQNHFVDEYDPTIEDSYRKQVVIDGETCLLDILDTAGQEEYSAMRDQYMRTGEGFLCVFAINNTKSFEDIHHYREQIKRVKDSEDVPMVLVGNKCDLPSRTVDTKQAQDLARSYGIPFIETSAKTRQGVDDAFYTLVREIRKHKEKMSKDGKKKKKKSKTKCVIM
Where a name gives a salt, the structure may show the parent alone.
recorded-endpoint: IC50 (nM)

{"compound": "CN(C)C1CN(c2nc(N3C[C@H]4CC[C@@H](C3)N4)c3cnc(-c4cc(O)cc5ccccc45)c(F)c3n2)C1", "test-value": 847}
{"compound": "CN1CC2(CC2)C[C@H]1COc1nc(N2C[C@H]3CC[C@@H](C2)N3)c2cc(Cl)c(-c3cc(O)cc4ccccc34)c(F)c2n1 (single isomer, unassigned) [Compound 167, dihydrochloride]", "test-value": 248}
{"compound": "C[C@@H](COc1nc(N2CC3CCC(C2)N3)c2cc(Cl)c(-c3cc(O)cc4ccc(F)cc34)c(F)c2n1)CN1C2CCC1COC2 (single isomer, unassigned) [Compound 234a]", "test-value": 200}
{"compound": "CC[C@@H]1CN(CCCOc2nc(N3CC4CCC(C3)N4)c3cc(Cl)c(-c4cc(O)cc5ccccc45)c(F)c3n2)C[C@H](CC)O1 (single isomer, unassigned)", "test-value": 5030}
{"compound": "CC(C)N(C)CCCOc1nc(N2CC3CCC(C2)N3)c2cc(Cl)c(-c3cc(O)cc4ccccc34)c(F)c2n1 (single isomer, unassigned) [Compound 50a]", "test-value": 1690}

----------
subject-of-test: KRAS-G12D and SOS1 (Homo sapiens, UniProt P01116, G12D)
Sequence (P01116 1-188 isoform P01116-2 G12D): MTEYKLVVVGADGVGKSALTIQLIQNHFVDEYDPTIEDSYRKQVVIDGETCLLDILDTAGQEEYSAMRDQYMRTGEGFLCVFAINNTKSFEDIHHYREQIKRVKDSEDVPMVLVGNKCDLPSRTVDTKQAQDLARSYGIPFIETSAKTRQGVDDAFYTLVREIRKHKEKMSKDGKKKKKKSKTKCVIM
test-description: Inhibition of KRAS-G12D/SOS1 binding (Cisbio binding kit, 665/615 ratio), Effect Embodiment A
measurement-parameters: read-out: GTP-KRAS-G12D:SOS1 IC50
Structures can show the parent of a compound that is named as a salt.
recorded-endpoint: IC50 (µM)

{"compound": "CN(C)C1CN(c2nc(N3CC4CC(C3)N4)c3cc(Cl)c(-c4cc(O)cc5ccccc45)c(F)c3n2)C1 (single isomer, unassigned)", "sign-qualifier": "=", "test-value": 0.294}
{"compound": "CCc1cccc2cc(O)cc(-c3c(F)cc4c(N5CC6CCC(C5)N6)nc(OCCCN5CCOC[C@H]5C)nc4c3F)c12 (single isomer, unassigned) [Compound 282b, dihydrochloride]", "sign-qualifier": "=", "test-value": 5.07}
{"compound": "CN(C)C1CN(c2nc(N=S3(=O)CCC(N)CC3)c3cc(Cl)c(-c4cc(O)cc5ccccc45)c(F)c3n2)C1 (single isomer, unassigned) [Compound 72d]", "sign-qualifier": "=", "test-value": 176}
{"compound": "CC(COc1nc(N2CC3CCC(C2)N3)c2cc(Cl)c(-c3cc(O)cc4ccccc34)c(F)c2n1)CN1C2CCC1COC2 (single isomer, unassigned) [Compound 178b]", "sign-qualifier": "=", "test-value": 0.0397}
{"compound": "Oc1cc(-c2c(Cl)cc3c(N4CC5CCC(C4)N5)nc(OCCCN4CC5CCC4CO5)nc3c2F)c2ccccc2c1 (single isomer, unassigned) [Compound 187b]", "sign-qualifier": "=", "test-value": 0.0277}
{"compound": "CN1CCCC1CCOc1nc(N2CC3CCC(C2)N3)c2cc(Cl)c(-c3cc(O)cc4ccccc34)c(F)c2n1 (single isomer, unassigned) [Compound 96a]", "sign-qualifier": "=", "test-value": 0.022}
{"compound": "CN(C)CCCn1c(=O)nc(N2CC3CCC(C2)N3)c2cc(Cl)c(-c3cc(O)cc4ccccc34)c(F)c21 (single isomer, unassigned) [Compound 74b]", "sign-qualifier": ">", "test-value": 200}
{"compound": "Oc1cc(-c2c(Cl)cc3c(N4CC5CCC(C4)N5)nc(OCC45CCN(CC4)CC5)nc3c2F)c2ccccc2c1 (single isomer, unassigned)", "sign-qualifier": "=", "test-value": 0.0259}
{"compound": "CCN(CC)CCCOc1nc(N2CC3CCC(C2)N3)c2cc(Cl)c(-c3cc(O)cc4ccccc34)c(F)c2n1 (single isomer, unassigned) [Compound 53a]", "sign-qualifier": "=", "test-value": 0.0597}
{"compound": "CN1CCC[C@H]1COc1nc(N2CC3CCC(C2)N3)c2cc(F)c(-c3cc(O)cc4ccccc34)c(F)c2n1 (single isomer, unassigned) [Compound 160a, dihydrochloride]", "sign-qualifier": "=", "test-value": 0.0194}
{"compound": "Oc1cc(-c2c(Cl)cc3c(N4C[C@H]5CC[C@@H](C4)N5)nc(OCCCN4C[C@H]5C[C@@H]4CO5)nc3c2F)c2ccccc2c1 (single isomer, unassigned) [Compound 169, dihydrochloride]", "sign-qualifier": "=", "test-value": 0.0392}
{"compound": "CN(C)C1CN(c2nc(N3CCNC4CC43)c3cc(Cl)c(-c4cc(O)cc5ccccc45)c(F)c3n2)C1 (single isomer, unassigned)", "sign-qualifier": "=", "test-value": 0.312}
{"compound": "C[C@@H]1CCCCN1CCOc1nc(N2CC3CCC(C2)N3)c2cc(Cl)c(-c3cc(O)cc4ccccc34)c(F)c2n1 (single isomer, unassigned)", "sign-qualifier": "=", "test-value": 0.0679}
{"compound": "CN1CCC1CCOc1nc(N2CC3CCC(C2)N3)c2cc(Cl)c(-c3cc(O)cc4ccccc34)c(F)c2n1 (single isomer, unassigned) [Compound 112a]", "sign-qualifier": "=", "test-value": 0.0574}
{"compound": "Oc1cc(-c2c(Cl)cc3c(N4CC5CCC(C4)N5)nc(OCCCN4C5CCC4COC5)nc3c2F)c2c(F)c(F)ccc2c1 (single isomer, unassigned)", "sign-qualifier": "=", "test-value": 0.0311}
{"compound": "C[C@@H](COc1nc(N2CC3CCC(C2)N3)c2cc(Cl)c(-c3cc(O)cc4ccccc34)c(F)c2n1)CN1CC(C)(C)OC(C)(C)C1 (single isomer, unassigned)", "sign-qualifier": "=", "test-value": 0.191}
{"compound": "Nc1cc(-c2c(Cl)cc3c(N4C[C@H]5CC[C@@H](C4)N5)nc(OCCCN4C5CCC4COC5)nc3c2F)c2ccccc2c1 (single isomer, unassigned) [Compound 192b]", "sign-qualifier": "=", "test-value": 0.186}
{"compound": "CN(C)C1CN(c2nc(N3CC4CCC(C3)N4)c3cc(Cl)c(-c4cc(O)cc5cccc(Cl)c45)c(F)c3n2)C1 (single isomer, unassigned) [Compound 65b]", "sign-qualifier": "=", "test-value": 0.0843}
{"compound": "Oc1cc(-c2c(Cl)cc3c(N4CC5CCC(C4)N5)nc(OCCN4C5CC6CC4CC(C5)O6)nc3c2F)c2ccccc2c1 (single isomer, unassigned)", "sign-qualifier": "=", "test-value": 0.0433}
{"compound": "C[C@H]1C[C@@H](COc2nc(N3CC4CCC(C3)N4)c3cnc(-c4cc(O)cc5ccccc45)c(F)c3n2)N(C)C1", "sign-qualifier": "=", "test-value": 0.0193}
{"compound": "Oc1cc(-c2c(Cl)cc3c(N4CC5CCC(C4)N5)nc(OCCCN4CCOCC4)nc3c2F)c2ccccc2c1 (single isomer, unassigned) [Compound 54a]", "sign-qualifier": "=", "test-value": 0.0262}

----------
subject-of-test: KRAS-G12D and SOS1 (Homo sapiens, UniProt P01116, G12D)
test-description: Inhibition of KRAS-G12D/SOS1 binding (Cisbio binding kit, 665/615 ratio), Effect Embodiment A
measurement-parameters: read-out: GTP-KRAS-G12D:SOS1 IC50
pIC50: −log10 of the molar value. Counter-ions that a name gives are not always drawn.

{"molecule": "Oc1cc(-c2c(Cl)cc3c(N4CC5CCC(C4)N5)nc(OCCCN4C5CC6CC4CC(C5)O6)nc3c2F)c2ccccc2c1 (single isomer, unassigned) [Compound 235]", "pIC50": 7.28}
{"molecule": "CN(C)C1CN(c2nc(N3CCCNCC3)c3cc(Cl)c(-c4cc(O)cc5ccccc45)c(F)c3n2)C1 (single isomer, unassigned) [Compound 23]", "pIC50": 6.02}
{"molecule": "CN(C)C1CN(c2nc(C3CCNCC3)c3cc(Cl)c(-c4cc(O)cc5ccccc45)c(F)c3n2)C1 [Compound 20a]", "pIC50": 5.32}
{"molecule": "Oc1cc(-c2c(Cl)cc3c(N4CC5CCC(C4)N5)nc(OCCCN4CCC5(CCOC5)C4)nc3c2F)c2ccccc2c1 (single isomer, unassigned) [Compound 270]", "pIC50": 7.37}
{"molecule": "CN1CCC[C@H]1COc1nc(N2CC3CCC(C2)N3)c2cc(F)c(-c3cc(O)cc4ccccc34)c(F)c2n1 [Compound 160, dihydrochloride]", "pIC50": 7.56}
{"molecule": "CN1CCN(c2nc(N3CC4CCC(C3)N4)c3cc(Cl)c(-c4cc(O)cc5ccccc45)c(F)c3n2)CC1 (single isomer, unassigned) [Compound 52a]", "pIC50": 5.95}
{"molecule": "CC1(C)CN(CCCOc2nc(N3CC4CCC(C3)N4)c3cc(Cl)c(-c4cc(O)cc5ccccc45)c(F)c3n2)CC(C)(C)O1 (single isomer, unassigned) [Compound 222]", "pIC50": 6.24}
{"molecule": "CN(C)C1CN(c2nc(N3CC4CCC(C3)N4)c3cc(Cl)c(-c4cc(O)cc5cccc(F)c45)c(F)c3n2)C1 (single isomer, unassigned) [Compound 64b]", "pIC50": 7.35}
{"molecule": "CN1CCC[C@H]1C1(Oc2nc(N3CC4CCC(C3)N4)c3cc(Cl)c(-c4cc(O)cc5ccccc45)c(F)c3n2)CC1 (single isomer, unassigned) [Compound 189]", "pIC50": 5.08}
{"molecule": "Oc1cc(-c2c(Cl)cc3c(N4CC5CCC(C4)N5)nc(OCC4(CN5C6CCC5COC6)COC4)nc3c2F)c2ccccc2c1 (single isomer, unassigned) [Compound 204]", "pIC50": 7.11}
{"molecule": "CN(C)C1CN(c2nc(N3C4CC5CC3CC(C4)N5)c3cc(Cl)c(-c4cc(O)cc5ccccc45)c(F)c3n2)C1 (single isomer, unassigned) [Compound 34]", "pIC50": 6.73}
